molecular target: AP-4-A phosphorylase (Mycobacterium tuberculosis (strain ATCC 25618 / H37Rv)); assay: FRET assay; conditions: pH 8
Result type: pIC50
Numbers only, as −log10 of the molar value.

Guide cases for pIC50, answers given:
Chem smiles: N#C/C(=C(\Nc1cccc(C(F)(F)F)c1)SCc1ccccc1)S(=O)(=O)c1ccccc1
Endpoint value: 6.10
--
Chem smiles: CS/C(Nc1cccc([N+](=O)[O-])c1)=C(/C#N)S(=O)(=O)c1ccccc1
Endpoint value: 5.89
--
Chem smiles: CCCc1cccc(N/C(SC)=C(\C#N)S(=O)(=O)c2ccccc2)c1
Endpoint value: 6.02
--
Chem smiles: CCCS/C(Nc1cccc(C(F)(F)F)c1)=C(/C#N)S(=O)(=O)c1ccccc1
Endpoint value: 6.33

Attention now turns to another entry.
Summary line: `CC(C)S/C(Nc1cccc(C(F)(F)F)c1)=C(/C#N)S(=O)(=O)c1ccccc1` , AP-4-A phosphorylase (Mycobacterium tuberculosis (strain ATCC 25618 / H37Rv)), reported pIC50 = 6.03

* * *

So I've got a bunch of compounds here, and I need their IC50 values.
target: AP-4-A phosphorylase (Mycobacterium tuberculosis (strain ATCC 25618 / H37Rv), UniProt P9WMK9); assay: FRET assay; settings: pH 8
Sequence (P9WMK9 whole entry): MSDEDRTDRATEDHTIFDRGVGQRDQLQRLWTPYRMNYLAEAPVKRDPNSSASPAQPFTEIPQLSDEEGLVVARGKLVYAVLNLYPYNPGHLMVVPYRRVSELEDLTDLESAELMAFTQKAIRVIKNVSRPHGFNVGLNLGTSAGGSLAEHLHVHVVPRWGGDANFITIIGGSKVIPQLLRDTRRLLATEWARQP

Guide cases for IC50, answers given:
Chem smiles: CS/C(Nc1cc(C(F)(F)F)cc(C(F)(F)F)c1)=C(/C#N)S(=O)(=O)c1ccccc1
Endpoint value: > 100 µM
//
Chem smiles: CS/C(Nc1ccccc1C(F)(F)F)=C(/C#N)S(=O)(=O)c1ccccc1
Endpoint value: > 100 µM

Attention now turns to another entry.
According to the records, this compound `CS/C(Nc1ccccc1)=C(/C#N)S(=O)(=O)c1ccc(Cl)cc1` displays IC50 of > 100 µM
